# TESTED ON: human F508del CFTR (Homo sapiens, UniProt P13569, DEL508-508)
# Construct: expressed in transfected cells; host or cells: Fisher Rat Thyroid (FRT) cells
# Sequence (P13569 with tags, fused parts or gaps DEL508-508): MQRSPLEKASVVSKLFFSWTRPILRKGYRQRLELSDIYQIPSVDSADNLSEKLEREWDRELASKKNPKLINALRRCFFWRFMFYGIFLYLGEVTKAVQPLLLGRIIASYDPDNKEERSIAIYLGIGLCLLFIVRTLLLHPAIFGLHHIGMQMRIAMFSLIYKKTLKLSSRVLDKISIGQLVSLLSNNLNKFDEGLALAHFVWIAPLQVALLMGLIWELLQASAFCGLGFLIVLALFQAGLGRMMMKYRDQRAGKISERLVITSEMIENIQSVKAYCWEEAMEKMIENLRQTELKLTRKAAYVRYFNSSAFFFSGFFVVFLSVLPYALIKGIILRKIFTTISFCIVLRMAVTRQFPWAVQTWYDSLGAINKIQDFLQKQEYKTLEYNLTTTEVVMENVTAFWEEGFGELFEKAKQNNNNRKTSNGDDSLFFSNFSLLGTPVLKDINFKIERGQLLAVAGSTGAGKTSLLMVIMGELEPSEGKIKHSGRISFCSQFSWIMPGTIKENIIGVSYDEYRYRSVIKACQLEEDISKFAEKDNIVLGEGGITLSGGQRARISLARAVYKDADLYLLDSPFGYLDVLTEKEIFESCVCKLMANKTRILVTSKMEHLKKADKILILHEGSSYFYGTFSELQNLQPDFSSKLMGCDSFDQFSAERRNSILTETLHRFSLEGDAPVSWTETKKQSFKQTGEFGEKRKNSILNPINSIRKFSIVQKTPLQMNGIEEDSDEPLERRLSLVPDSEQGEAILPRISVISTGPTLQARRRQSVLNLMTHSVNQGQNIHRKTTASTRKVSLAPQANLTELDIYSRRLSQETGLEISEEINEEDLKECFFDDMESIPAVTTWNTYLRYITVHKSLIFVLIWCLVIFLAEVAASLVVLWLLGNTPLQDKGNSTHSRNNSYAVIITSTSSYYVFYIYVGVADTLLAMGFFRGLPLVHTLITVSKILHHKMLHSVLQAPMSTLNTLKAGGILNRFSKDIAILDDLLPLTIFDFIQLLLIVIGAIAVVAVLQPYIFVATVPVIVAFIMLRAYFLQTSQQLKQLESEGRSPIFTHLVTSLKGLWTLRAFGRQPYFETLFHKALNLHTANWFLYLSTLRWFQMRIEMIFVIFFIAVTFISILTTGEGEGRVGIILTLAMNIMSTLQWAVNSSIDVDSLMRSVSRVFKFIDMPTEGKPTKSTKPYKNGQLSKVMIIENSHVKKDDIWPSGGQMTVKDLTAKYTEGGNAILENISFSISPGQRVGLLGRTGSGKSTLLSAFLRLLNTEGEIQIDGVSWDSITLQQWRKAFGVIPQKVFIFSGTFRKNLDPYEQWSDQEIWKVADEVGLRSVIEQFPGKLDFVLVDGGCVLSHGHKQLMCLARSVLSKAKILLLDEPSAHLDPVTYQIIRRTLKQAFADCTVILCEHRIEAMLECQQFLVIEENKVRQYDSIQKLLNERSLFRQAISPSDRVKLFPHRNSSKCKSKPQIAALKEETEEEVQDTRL
# ASSAY COMMENT: CFTR-YFP High Throughput Assay
# Type: cell-based
# CONDITION PARAMETERS: EMax normalized to the positive control; FRT cells expressing human F508del CFTR and YFP; read-out: % Efficacy
REPORTED ENDPOINT: Emax

Q. Recorded Emax of "CCN(C(=O)c1nn(-c2ccc(C)cc2)c(=O)c2c1c1c(OC)cccc1n2C)c1ccccc1" , please.
A. 30 to 80%

Q. Recorded Emax of "CCc1ccc(N(CC)C(=O)Cn2nc(Cc3cccnc3)c3ccc(C)cc3c2=O)cc1" , please.
A. 30 to 80%

Q. Recorded Emax of "CCc1ccc(N(CC)C(=O)Cn2nc(Cc3cccnc3)c3ncccc3c2=O)cc1" , please.
A. 10 to 30%

Q. Recorded Emax of "CCN(C(=O)Cn1ncc2c(c1=O)c1ccccc1n2CCOC)c1ccc2c(c1)OC(F)(F)O2" , please.
A. 30 to 80%

Q. Recorded Emax of "CCN(C(=O)c1nn(C[C@@H](O)COCc2ccccc2)c(=O)c2c1c1ccccc1n2C)c1ccccc1" , please.
A. 30 to 80%

Q. Recorded Emax of "CC(C)n1nc(-c2ccccc2)c2c3ccccc3n(C)c2c1=O" , please.
A. 30 to 80%

Q. Recorded Emax of CCN(C(=O)c1nn(CC2CCCO2)c(=O)c2c1c1ccccc1n2C)c1ccccc1 (stereo not drawn) , please.
A. 30 to 80%

Q. Recorded Emax of "Cc1ccc(-n2nc(CN3CCOCC3)c3c4ccccc4n(C)c3c2=O)cc1" , please.
A. 30 to 80%

Q. Recorded Emax of "Cc1nc2ccc(N(C)C(=O)Cn3nc(-c4cccc(C#N)c4)c4ccc(OC5CCCCC5)cc4c3=O)cc2o1" , please.
A. > 80%

====

# TESTED ON: human F508del CFTR (Homo sapiens, UniProt P13569, DEL508-508)
# Construct: expressed in transfected cells; host or cells: Fisher Rat Thyroid (FRT) cells
# ASSAY COMMENT: CFTR-YFP High Throughput Assay
# Type: cell-based
# CONDITION PARAMETERS: EMax normalized to the positive control; FRT cells expressing human F508del CFTR and YFP; read-out: % Efficacy
REPORTED ENDPOINT: Emax

Q. Recorded Emax of "CCc1ccc(N(CC)C(=O)Cn2nc(-c3ccc(C(=O)OC)cc3)c3ccccc3c2=O)cc1" , please.
A. 10 to 30%

Q. Recorded Emax of "CCc1ccc(N(CC)C(=O)Cn2nc(Cc3cccnc3)c3ccc(OC)cc3c2=O)cc1" , please.
A. 30 to 80%

Q. Recorded Emax of "CCc1ccc(N(CC)C(=O)Cn2nc(-c3ccc(O)cc3)c3ccccc3c2=O)cc1" , please.
A. 10 to 30%

Q. Recorded Emax of "CCN(C(=O)Cn1nc(Cc2cccnc2)c2cc(Cl)ccc2c1=O)c1ccc2c(c1)OC(F)(F)O2" , please.
A. 30 to 80%

Q. Recorded Emax of "CCc1ccc(N(CC)C(=O)Cn2nc(C(=O)Nc3cc(Cl)ccc3C(=O)OC)c3ccccc3c2=O)cc1" , please.
A. 30 to 80%

Q. Recorded Emax of "Cc1ccc(-n2nc(Cn3ccnc3)c3c4ccccc4n(C)c3c2=O)cc1" , please.
A. 30 to 80%

Q. Recorded Emax of "CCN(C(=O)c1nn(-c2ccc(C)cc2)c(=O)c2c1c1sc(C)cc1n2C)c1ccccc1" , please.
A. 10 to 30%

Q. Recorded Emax of "CCN(C(=O)c1nn(CCOC)c(=O)c2c1c1ccccc1n2C)c1ccccc1" , please.
A. 30 to 80%

Q. Recorded Emax of "CCN(C(=O)c1nn(-c2ccc(C)cc2)c(=O)c2c1c1ccccc1n2CC(=O)O)c1ccccc1" , please.
A. 30 to 80%

Q. Recorded Emax of "CCN(C(=O)Cn1nc(-c2cccc(C#N)c2)c2ccccc2c1=O)c1ccc2c(c1)OC(F)(F)O2" , please.
A. > 80%

Q. Recorded Emax of "CCOc1cc2c(=O)n(CC(=O)N(C)c3ccc4nc(C)oc4c3)nc(-c3cccc(F)c3)c2cc1Cl" , please.
A. > 80%

Q. Recorded Emax of "CCN(C(=O)c1nn(-c2ccccc2)c(=O)c2c1c1ccccc1n2C)c1ncccn1" , please.
A. 30 to 80%

Q. Recorded Emax of "CCN(C(=O)Cn1nc(Cc2cccnc2)c2cccc(C)c2c1=O)c1ccc2c(c1)OC(F)(F)O2" , please.
A. 30 to 80%

Q. Recorded Emax of "CCOc1cccc2c(Cc3cccnc3)nn(CC(=O)N(CC)c3ccc4c(c3)OC(F)(F)O4)c(=O)c12" , please.
A. 30 to 80%

Where do the numbers come from? From patent US10370366B2.
